B1: PBXIP1 (parent)
chain: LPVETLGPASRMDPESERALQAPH

# Variants of: B1
# test: protein stability index of a GFP-peptide fusion (GPS, HEK-293T) (PSI 1-6); higher = more stable;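 also: lentivirally expressed fusions sorted by FACS into six bins by GFP to DsRed ratio, PSI derived from sequencing read proportions per bin multiplied by bin number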
# conditionInfo: c terminus: a fixed tail appended
The variants listed here are annotated with their protein stability index.
Please give only the number in your answer, with no unit.

[[record]]
mutationlist = "T5R"
quantitativereadout = 4.14

[[record]]
mutationlist = "A19N"
quantitativereadout = 4.45

[[record]]
mutationlist = "T5C"
quantitativereadout = 4.89

[[record]]
mutationlist = "M12A"
quantitativereadout = 4.31

[[record]]
mutationlist = "E4S"
quantitativereadout = 4.94


**Q:** Form field: reported protein stability index of R11C
**A:** 4.63

**Q:** Form field: reported protein stability index of R18W
**A:** 3.66

**Q:** Form field: reported protein stability index of A19F
**A:** 4.05
